Test: Binding affinity to human FRalpha expressed in Chinese hamster RT16 cells assessed as antiproliferative activity measured as reduction in cell growth after 96 hrs by Cell-Titer Blue assay
Please provide measured pIC50 for the entries that follow.
The meaning of pIC50 here: minus log10 of the concentration in molar units.

Task: Suppose we examine the compound CN(Cc1cc2c(=O)[nH]c(N)nc2[nH]1)C(=O)c1cc(C(=O)N[C@@H](CCC(=O)O)C(=O)O)cs1 ; what pIC50 value has been reported?
Output: 6.06

Task: Find the recorded pIC50 belonging to CN(Cc1cc2c(=O)[nH]c(N)nc2[nH]1)C(=O)c1ccc(C(=O)N[C@@H](CCC(=O)O)C(=O)O)s1 and report it.
Output: 8.11

Task: // query pIC50 value for entry CN(Cc1cc2c(=O)[nH]c(N)nc2[nH]1)C(=O)c1cccc(C(=O)N[C@@H](CCC(=O)O)C(=O)O)c1
Output: 8.74

* * *

Kindly supply the reported pIC50 values for the records listed here.
Experiment: Binding affinity to human PCFT expressed in Chinese hamster R2/PCFT4 cells assessed as antiproliferative activity measured as reduction in cell growth after 96 hrs by Cell-Titer Blue assay
pIC50: −log10 of the molar value.

Task: Return reported pIC50; argument: CN(Cc1cc2c(=O)[nH]c(N)nc2[nH]1)C(=O)c1ccc(C(=O)N[C@@H](CCC(=O)O)C(=O)O)cc1
Output: 7.31

Task: Look up pIC50: CN(Cc1cc2c(=O)[nH]c(N)nc2[nH]1)C(=O)c1ccc(C(=O)N[C@@H](CCC(=O)O)C(=O)O)s1
Output: < 6.00

Task: Can you share its pIC50? I mean this molecule: CN(Cc1cc2c(=O)[nH]c(N)nc2[nH]1)C(=O)c1cccc(C(=O)N[C@@H](CCC(=O)O)C(=O)O)c1
Output: 6.13

Task: I'd like to know its pIC50. The molecule in question is CN(Cc1cc2c(=O)[nH]c(N)nc2[nH]1)S(=O)(=O)c1ccc(C(=O)N[C@@H](CCC(=O)O)C(=O)O)cc1
Output: < 6.00

Task: Query (molecule): CN(Cc1cc2c(=O)[nH]c(N)nc2[nH]1)C(=O)c1csc(C(=O)N[C@@H](CCC(=O)O)C(=O)O)c1 ; field requested: pIC50
Output: < 6.00

Task: For the molecule CN(Cc1cc2c(=O)[nH]c(N)nc2[nH]1)C(=O)c1cc(C(=O)N[C@@H](CCC(=O)O)C(=O)O)cs1 , what pIC50 is on record?
Output: < 6.00
